Target: T1, EsCas13d, nuclease-dead (Eubacterium siraeum, UniProt B0MS50, R295A;H300A;R849A;H854A)
T1 sequence: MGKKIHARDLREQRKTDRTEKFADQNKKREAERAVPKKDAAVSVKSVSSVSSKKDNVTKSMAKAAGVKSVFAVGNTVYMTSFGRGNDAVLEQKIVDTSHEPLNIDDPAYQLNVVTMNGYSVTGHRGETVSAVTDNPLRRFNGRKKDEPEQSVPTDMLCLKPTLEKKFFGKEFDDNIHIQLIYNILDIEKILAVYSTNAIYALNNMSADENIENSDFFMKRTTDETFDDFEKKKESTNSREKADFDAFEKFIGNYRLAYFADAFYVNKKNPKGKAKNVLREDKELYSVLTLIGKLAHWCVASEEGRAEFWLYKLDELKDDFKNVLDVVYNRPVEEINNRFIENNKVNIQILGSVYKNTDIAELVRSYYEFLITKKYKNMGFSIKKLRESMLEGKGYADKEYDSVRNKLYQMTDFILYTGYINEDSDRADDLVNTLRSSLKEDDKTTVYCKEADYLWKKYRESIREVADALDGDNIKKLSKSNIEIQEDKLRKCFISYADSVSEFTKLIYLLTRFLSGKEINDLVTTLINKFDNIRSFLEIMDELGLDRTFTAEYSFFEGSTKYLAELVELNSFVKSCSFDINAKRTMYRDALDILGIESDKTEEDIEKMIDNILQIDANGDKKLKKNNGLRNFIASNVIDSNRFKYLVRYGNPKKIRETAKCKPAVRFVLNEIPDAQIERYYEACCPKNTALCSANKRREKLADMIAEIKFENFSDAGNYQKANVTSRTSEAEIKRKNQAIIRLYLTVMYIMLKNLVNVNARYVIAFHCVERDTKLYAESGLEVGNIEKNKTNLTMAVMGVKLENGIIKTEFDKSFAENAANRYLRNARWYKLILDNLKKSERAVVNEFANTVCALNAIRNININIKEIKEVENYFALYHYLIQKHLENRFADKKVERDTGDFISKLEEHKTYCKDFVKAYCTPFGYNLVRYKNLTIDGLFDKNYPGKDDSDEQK
Experiment: crRNA (strand 1, pre-loaded); Mg2+; 40 mM Tris-HCl pH 7.5, 150 mM NaCl, 6 mM MgCl2, 1 mM DTT, 0.1% Tween-20, 0.2 mg/ml BSA; 25 C; 10 min per concentration, then washed
Details: tags: His6-TwinStrep-SUMO cleaved; N-terminal SNAP kept (SNAP-Surface 488); label: 3' end held by stalled T7 RNA polymerase
pKd: −log10 of the molar value.

# binder, pKd
measured = [
    ("target 1 insG 3' of 14,insG 3' of 1 (mixed) RNA 1: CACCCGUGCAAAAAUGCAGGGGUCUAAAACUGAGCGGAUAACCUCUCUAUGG RNA 2: GGGAAUGGAUCCACAUCUACGAAUUCGUACCAUAGAGAGGGUUAUCCGCUCAGCCGAGAUCGGAAGAGCACACGU", 7.95),
    ("target 1 insG 3' of 19,insA 3' of 5 (mixed) RNA 1: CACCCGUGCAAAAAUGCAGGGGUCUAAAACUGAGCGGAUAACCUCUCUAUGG RNA 2: GGGAAUGGAUCCACAUCUACGAAUUCGUACCAUGAGAGAGGUUAUCCGACUCACCGAGAUCGGAAGAGCACACGU", 7.38),
]
